assay: Immunostimulating activity in BALb/c mouse splenocytes assessed as increase in concanavalin A-induced cell proliferation at 50 uM after 72 hrs by MTT assay; assay type: functional, Splenocyte
Listing: Activity of selected compounds
metric: Activity

• O=C1CS[C@@H]([C@H]2O[C@H](CO)[C@@H](O)[C@@H]2O)N1c1ccccc1 = <50%
• CCCCN1C(=O)CS[C@H]1[C@H]1O[C@H](CO)[C@@H](O)[C@@H]1O = <50%
• CCCCCCCCN1C(=O)CS[C@@H]1[C@H]1O[C@H](CO)[C@@H](O)[C@@H]1O = <50%
• O=C1CS[C@H]([C@H]2O[C@H](CO)[C@@H](O)[C@@H]2O)N1c1ccccc1 = 171%
• CN1C(=O)CS[C@@H]1[C@H]1O[C@H](CO)[C@@H](O)[C@@H]1O = 327%
• CCCCCCCCN1C(=O)CS[C@H]1[C@H]1O[C@H](CO)[C@@H](O)[C@@H]1O = <50%
• CCCCN1C(=O)CS[C@@H]1[C@H]1O[C@H](CO)[C@@H](O)[C@@H]1O = <50%
• CN1C(=O)CS[C@H]1[C@H]1O[C@H](CO)[C@@H](O)[C@@H]1O = 35%
• CCCCCCCCCCCCCCCCCCN1C(=O)CS[C@@H]1[C@H]1O[C@H](CO)[C@@H](O)[C@@H]1O = <50%
• CCCCCCCCCCCCCCCCCCN1C(=O)CS[C@H]1[C@H]1O[C@H](CO)[C@@H](O)[C@@H]1O = <50%
